For each record, write down the corresponding growth inhibition.
assay.info: NCI Yeast Anticancer Drug Screen. Data for the bub3 strain (AID 167)
stated.conditions: S. cerevisiae bub3 mutant strain, at 50.0 µM, active compounds read high
The panel holds about 79,000 compounds, 15% with a hit somewhere; the sample as a whole holds those more often.
API: value field is a number in %; no unit string.

Prompt: Value lookup for growth inhibition; key = Cc1csc(C)[n+]1CC(=O)c1ccccc1
Completion: -6.1

Prompt: Value lookup for growth inhibition; key = CCOc1ccc2ccccc2c1N
Completion: 51.7

Prompt: Value lookup for growth inhibition; key = COc1ccc2c(c1)CCCN2S(=O)(=O)c1ccccc1[N+](=O)[O-]
Completion: 39.2

Prompt: Value lookup for growth inhibition; key = Cc1cc([N+](C)(C)C)c(C(C)C)cc1O
Completion: 11

Prompt: Value lookup for growth inhibition; key = CCN(CC)c1ccc2cc(-c3nc4ccccc4n3C)c(=O)oc2c1
Completion: 1.35

Prompt: Value lookup for growth inhibition; key = O=C(O)c1ccccc1C(=O)OCC1CCc2ccccc2C1 (stereo unspecified)
Completion: 51.4

Prompt: Value lookup for growth inhibition; key = Cc1ccc(-n2nc3c(c(C#N)c2=O)-c2ccccc2C3=O)cc1
Completion: -2.7

Prompt: Value lookup for growth inhibition; key = ClCCCCCc1c2nc(c(CCCCCCl)c3ccc([nH]3)c(CCCCCCl)c3ccc([nH]3)c(CCCCCCl)c3nc1C=C3)C=C2
Completion: 4.9

Prompt: Value lookup for growth inhibition; key = COCc1nc2c(=O)[nH]c(N)nc2[nH]c1=O
Completion: 1.7

Prompt: Value lookup for growth inhibition; key = COC(OC)c1cccc2c1C(=O)CCC1(O)c3ccccc3C1C2 (stereo unspecified)
Completion: -30.1

Prompt: Value lookup for growth inhibition; key = CC[N+](CC)(CC)CCC[n+]1ccc(/C=N\O)cc1
Completion: -0.8

====

assay.info: NCI Yeast Anticancer Drug Screen. Data for the mlh1 rad18 strain (AID 175)
stated.conditions: S. cerevisiae mlh1 rad18 strain growth inhibition; at 50.0 µM; active compounds read high
This is part of a sample that, as a whole, favours compounds with a hit. Of some 79,000 tested, about 15% had one in any assay.
measurement.kind: growth inhibition (%)
API: value field is a number in %; no unit string.

Prompt: Value lookup for growth inhibition; key = O=C1CC(c2ccccc2)C(c2ccccc2)C1 (stereo unspecified)
Completion: -0.25

Prompt: Value lookup for growth inhibition; key = COC(=O)CC1(O)C=C(C)C(=O)c2ccccc21 (stereo unspecified)
Completion: -11.2

Prompt: Value lookup for growth inhibition; key = CC(=O)Oc1ccc2c(c1)c1c(OC(C)=O)c(N(C)C(C)=O)cc(OC(C)=O)c1n2C
Completion: 5.6

Prompt: Value lookup for growth inhibition; key = N#Cc1c(-c2ccccc2)cc(-c2ccccc2)[nH]c1=O
Completion: 22.9

Prompt: Value lookup for growth inhibition; key = Nc1nc2c(c(=O)[nH]1)NC(CCNc1ccc(C(=O)NC(CCC(=O)O)C(=O)O)cc1)CN2 (stereo unspecified)
Completion: 16.1

Prompt: Value lookup for growth inhibition; key = O=C1OC(c2ccccc2)(c2ccc(Cl)cc2)CC1/C=C(\c1ccccc1)c1ccc(Cl)cc1 (stereo unspecified)
Completion: 3.65

====

assay.info: NCI Yeast Anticancer Drug Screen. Data for the mlh1 rad18 strain (AID 175)
stated.conditions: S. cerevisiae mlh1 rad18 strain growth inhibition; at 50.0 µM; active compounds read high
Compounds without any hit were thinned out: in the full panel of roughly 79,000, 15% have a hit.
measurement.kind: growth inhibition (%)
API: value field is a number in %; no unit string.

Prompt: Value lookup for growth inhibition; key = O=C1CCSSCCC(=O)NCCCN1
Completion: -6.3

Prompt: Value lookup for growth inhibition; key = CSc1nc2c(c(=O)n1C)N=C(c1ccc(Cl)cc1)CC(c1ccccc1)N2 (configuration not stated)
Completion: 15.8

Prompt: Value lookup for growth inhibition; key = S=C=NC12CC3CC(CC(C3)C1)C2
Completion: -15.5

Prompt: Value lookup for growth inhibition; key = CCC(=O)n1ncc2ccc([N+](=O)[O-])cc21
Completion: -7.5

Prompt: Value lookup for growth inhibition; key = ClCCOCc1ccc(Cl)c(Cl)c1
Completion: 9

Prompt: Value lookup for growth inhibition; key = N=C1C=CC2C(=Nc3ccccc3[N+]2=O)N1Cc1ccncc1 (configuration not stated)
Completion: 22.8

Prompt: Value lookup for growth inhibition; key = NC(=S)N=Nc1c(O)[nH]c2ccccc12
Completion: 6.55

====

assay.info: NCI Yeast Anticancer Drug Screen. Data for the bub3 strain (AID 167)
stated.conditions: S. cerevisiae bub3 mutant strain, at 50.0 µM
The panel holds about 79,000 compounds, 15% with a hit somewhere; the sample as a whole holds those more often. Activity calls are given as the source filed them. No stated cut-off is given here; in the data, active means growth inhibition above about 70%; inactive means the rest. Where a SMILES comes first, the peptide text is derived from it. [ ]: non-standard residue; d: D form. The star is where a group is joined. Nle = CCCC[CH](N)C(=O)O; Cbz = O=C(OCc1ccccc1)*; OBn = c1ccc(CO*)cc1
Thanks in advance; please answer with one of these: Y = active, N = inactive

Prompt: Fill in: this test's call for CN1C[C@H]2[C@@H](C1=O)[C@H](c1ccc([N+](=O)[O-])cc1)ON2C is ___
Completion: N

Prompt: Fill in: this test's call for O=C(Nc1ccc(Cl)cc1)OCC#CCOC(=O)Nc1ccc(Cl)cc1 is ___
Completion: N

Prompt: Fill in: this test's call for CCCCC(NC(=O)C1CCCN1C(=O)OCc1ccccc1)C(=O)OCc1ccccc1 (stereo not drawn) (Cbz-Pro-[Nle]-OBn; configuration not given here) is ___
Completion: N

Prompt: Fill in: this test's call for Cc1ccc(/C=N/NC2=NCCN2)s1 is ___
Completion: N

Prompt: Fill in: this test's call for C=COC(=O)c1ccccc1O is ___
Completion: N

Prompt: Fill in: this test's call for CC1CCC2C(C)C3C(CC4C5CC=C6CC(O)CCC6(C)C5CCC43COC(=O)c3ccccc3)N2C1 (configuration not stated) is ___
Completion: N

Prompt: Fill in: this test's call for O=[N+]([O-])C[C@@]12O[C@]3(O)C4C5CC(C6C5C3C61)C42 (some centres not stated) is ___
Completion: N

Prompt: Fill in: this test's call for O=c1cc(-c2ccccc2)[nH]c2nccn12 is ___
Completion: N

Prompt: Fill in: this test's call for Nc1ccnc(=O)[nH]1 is ___
Completion: N

Prompt: Fill in: this test's call for COC(=O)C1(C(C)C(=O)c2ccc(Cl)cc2)NC(=S)NC(=O)C1C#N (configuration not stated) is ___
Completion: N

Prompt: Fill in: this test's call for CC(N)C(O)C(C)C(=O)O (configuration not stated) is ___
Completion: N

Prompt: Fill in: this test's call for CC(C)C1CCC2(C)C(CCC3C(C)(CO)CCCC32O)C1 (configuration not stated) is ___
Completion: N

Prompt: Fill in: this test's call for C/C=C(\C)C(=O)N1c2ccccc2CC1c1c(C)[nH]c2ccccc12 (configuration not stated) is ___
Completion: N

Prompt: Fill in: this test's call for CC(C)C(NC(=O)C(Cc1ccc(O)cc1)NC(=O)OCc1ccccc1)C(=O)O (stereo not drawn) (Cbz-Tyr-Val-OH; configuration not given here) is ___
Completion: N

Prompt: Fill in: this test's call for Cn1c(=O)n2c(-c3ccccc3)c(-c3ccccc3)n2c1=O is ___
Completion: N

Prompt: Fill in: this test's call for CCNc1nnc(-c2nsc3ccccc23)s1 is ___
Completion: N

Prompt: Fill in: this test's call for C=C1C(OC(C)=O)CC(OC(C)=O)C2(C)C(OC(C)=O)C(OC(C)=O)C3=C(C)C(OC(=O)/C=C/c4ccccc4)CC(C(OC(C)=O)C12)C3(C)C (configuration not stated) is ___
Completion: N

Prompt: Fill in: this test's call for CC(=O)c1ccccc1C(C)c1ccc(C)c2ccccc12 (configuration not stated) is ___
Completion: N

Prompt: Fill in: this test's call for CC(=O)OCCS(=O)(=O)c1c(Cl)c(Cl)c(Cl)c(Cl)c1Cl is ___
Completion: Y

Prompt: Fill in: this test's call for CC(C)(C)C(=O)C(c1ccc(-c2cscn2)cc1)c1ccc(-c2cscn2)cc1 is ___
Completion: N

Prompt: Fill in: this test's call for C/C=C(\C)c1cc(=O)c2c(C)cc3c(c2o1)C(=O)c1c(OC)cccc1C3=O is ___
Completion: N

Prompt: Fill in: this test's call for C/C(=N\N=C\N(C)S(=O)(=O)c1ccc(C)cc1)c1ccccc1 is ___
Completion: N

====

assay.info: NCI Yeast Anticancer Drug Screen. Data for the mec2-1 strain (AID 157)
stated.conditions: S. cerevisiae mec2-1 strain, at 50.0 µM, active compounds read high
About 79,000 compounds went through this panel and 15% of them were active in at least one assay; those are over-represented in the sample as a whole.
measurement.kind: growth inhibition (%)
API: value field is a number in %; no unit string.

Prompt: Value lookup for growth inhibition; key = CC(=O)Nc1cc(F)c(N)c(F)c1
Completion: -4.3

Prompt: Value lookup for growth inhibition; key = CC1CCC2(CC1)CC(=O)N(N1CCCCC1)C2=O (configuration not stated)
Completion: 10.8

Prompt: Value lookup for growth inhibition; key = CC(C)C1C(=O)CCCC1=O
Completion: 9.6

Prompt: Value lookup for growth inhibition; key = CC(=O)c1c(C)n(-c2ccccc2)c2c1nnc1ccccc12
Completion: 3.65

Prompt: Value lookup for growth inhibition; key = Clc1ccc2nc[nH]c2c1
Completion: 10.1

Prompt: Value lookup for growth inhibition; key = Nc1ncnc(N)c1NC(=O)c1ccc(SCc2ccccc2)cc1
Completion: 20.9

Prompt: Value lookup for growth inhibition; key = CCOC(=O)C1=C(C)N(C2OC(COC(=O)c3ccccc3)C(OC(=O)c3ccccc3)C2OC(=O)c2ccccc2)C(=S)NC1c1ccccc1 (configuration not stated)
Completion: -27.1

Prompt: Value lookup for growth inhibition; key = Nc1ncnc2c1nnn2CCCCCC(=O)O
Completion: 27.8

Prompt: Value lookup for growth inhibition; key = CCCCCCCCCCCC(=O)O
Completion: 0.7

Prompt: Value lookup for growth inhibition; key = COC(=O)[C@]1(C)CCC[C@@]2(C)C1CC[C@@]13C=C(C(C)C)[C@@H](CC1=O)CC23 (some centres not stated)
Completion: 4.7

Prompt: Value lookup for growth inhibition; key = COc1ccc(C=O)c(C)c1
Completion: -30.1

Prompt: Value lookup for growth inhibition; key = CC1(C)C(=O)N=C(N)N1C(=O)OCc1ccccc1
Completion: -4.45
